The origin of these recorded values is paper PMC9226187.

- subjectOfTest: TDP-43 RRM1-2 (UniProt Q13148 102-269)
- Sequence (Q13148 102-269): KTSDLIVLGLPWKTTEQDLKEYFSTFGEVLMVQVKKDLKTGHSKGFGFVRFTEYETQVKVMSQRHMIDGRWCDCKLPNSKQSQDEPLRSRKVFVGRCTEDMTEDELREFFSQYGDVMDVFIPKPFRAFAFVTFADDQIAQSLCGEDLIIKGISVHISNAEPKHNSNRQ
- protocolText: BLI; BLI: 10 mM potassium phosphate pH 7.2, 150 mM KCl, 0.01% Tween20, 25 °C; biotin-RNA on streptavidin sensors, protein 20 nM-20 µM; PAINT in PBS
- appliedConditions: protein: recombinant; tags: His6-SUMO tag cleaved (TEV); label: 3' biotin; linear, single-stranded
observable: Kd (nM)
Kindly answer with a numeric value in nM, unit omitted.

Query: Give its Kd value. Item: CGGUGUUGCU (ssRNA) [Apt-1]
Result: 100
